# Target Or System: UniProtKB Q00960
# Sequence (Q00960 27-1482, other chains not shown): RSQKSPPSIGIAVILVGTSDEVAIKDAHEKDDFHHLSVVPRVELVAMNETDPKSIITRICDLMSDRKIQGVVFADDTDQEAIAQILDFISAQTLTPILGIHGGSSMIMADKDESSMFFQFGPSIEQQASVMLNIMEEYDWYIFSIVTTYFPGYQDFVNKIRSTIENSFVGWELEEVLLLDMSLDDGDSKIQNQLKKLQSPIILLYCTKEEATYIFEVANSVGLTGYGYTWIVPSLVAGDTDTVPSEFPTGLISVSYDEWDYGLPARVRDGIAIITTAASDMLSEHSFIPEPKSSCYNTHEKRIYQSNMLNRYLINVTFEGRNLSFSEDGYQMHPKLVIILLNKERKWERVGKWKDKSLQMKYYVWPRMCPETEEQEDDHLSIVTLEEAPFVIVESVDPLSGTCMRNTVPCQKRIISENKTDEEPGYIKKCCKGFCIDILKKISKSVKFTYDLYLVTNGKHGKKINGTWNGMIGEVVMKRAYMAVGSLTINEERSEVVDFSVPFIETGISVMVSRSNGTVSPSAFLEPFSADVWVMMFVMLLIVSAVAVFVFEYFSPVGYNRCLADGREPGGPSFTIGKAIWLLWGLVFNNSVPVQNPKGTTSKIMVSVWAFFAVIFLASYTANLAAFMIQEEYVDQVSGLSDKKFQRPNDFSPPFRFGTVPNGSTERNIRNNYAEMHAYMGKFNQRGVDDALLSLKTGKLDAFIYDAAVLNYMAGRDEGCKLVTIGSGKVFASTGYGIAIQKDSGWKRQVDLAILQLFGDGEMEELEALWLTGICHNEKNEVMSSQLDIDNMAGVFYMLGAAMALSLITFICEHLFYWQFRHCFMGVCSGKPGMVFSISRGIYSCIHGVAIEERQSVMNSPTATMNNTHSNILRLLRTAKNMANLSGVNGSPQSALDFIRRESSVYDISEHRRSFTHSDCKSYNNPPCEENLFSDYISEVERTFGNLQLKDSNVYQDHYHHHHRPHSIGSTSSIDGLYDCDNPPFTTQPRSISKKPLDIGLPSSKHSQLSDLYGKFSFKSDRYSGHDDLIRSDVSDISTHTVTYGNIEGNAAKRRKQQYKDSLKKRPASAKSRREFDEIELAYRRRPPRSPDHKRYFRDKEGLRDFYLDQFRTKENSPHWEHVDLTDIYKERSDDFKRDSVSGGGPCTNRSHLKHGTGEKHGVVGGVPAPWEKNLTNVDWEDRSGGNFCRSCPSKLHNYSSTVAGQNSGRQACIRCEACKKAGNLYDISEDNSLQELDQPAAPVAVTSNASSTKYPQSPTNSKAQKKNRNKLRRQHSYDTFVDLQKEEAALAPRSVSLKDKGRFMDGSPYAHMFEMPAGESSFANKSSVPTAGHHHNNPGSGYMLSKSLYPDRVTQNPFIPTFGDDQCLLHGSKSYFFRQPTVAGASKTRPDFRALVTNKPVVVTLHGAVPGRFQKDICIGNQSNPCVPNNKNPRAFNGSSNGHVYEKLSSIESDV
# Experimental Protocol: NR2B rat cortical neuron calcium influx assay
# Assay Setup: rat cortical neurons, glutamate and glycine stimulated calcium influx
pIC50: −log10 of the molar value.
Quantity Kind: pIC50

>>> quantitative_result("O=C1Nc2ccc([C@H](O)CN3C[C@H]4C[C@H](Oc5ccccc5)C[C@@]4(O)C3)cc2CO1 (single isomer, unassigned) [Example 28B]")
8.77
>>> quantitative_result("O=C1CCc2cc([C@@H](O)CN3C[C@H]4C[C@H](Oc5ccc(F)cc5)C[C@@]4(O)C3)ccc2N1 (single isomer, unassigned) [Example 22A]")
7.64
>>> quantitative_result("CC1(C)Cc2cc([C@H](O)CN3C[C@H]4C[C@H](Oc5ccccc5)C[C@@]4(O)C3)ccc2NC1=O (single isomer, unassigned) [Example 11B]")
8.59
>>> quantitative_result("O[C@@H](CN1C[C@H]2C[C@H](Oc3ccc(F)cc3F)C[C@@]2(O)C1)c1ccc2[nH]ncc2c1 [Example 21]")
7.96
>>> quantitative_result("O=C1Nc2c(F)cc([C@@H](O)CN3C[C@H]4C[C@H](Oc5ccccc5F)C[C@@]4(O)C3)cc2CO1 (single isomer, unassigned) [Example 35A]")
8.92
>>> quantitative_result("O=c1[nH]c2c(F)cc([C@H](O)CN3C[C@H]4C[C@H](Oc5ccccc5)C[C@@]4(O)C3)cc2s1 (single isomer, unassigned) [Example 42B]")
10.40
>>> quantitative_result("O=C1Nc2ccc([C@@H](O)CN3C[C@H]4C[C@H](Oc5ccccc5F)C[C@@]4(O)C3)cc2CO1 (single isomer, unassigned) [Example 41A]")
9.52
>>> quantitative_result("O=C1CCc2c(ccc([C@@H](O)CN3C[C@H]4C[C@H](Oc5ccccc5)C[C@@]4(O)C3)c2F)N1 (single isomer, unassigned) [Example 9A]")
8.57
>>> quantitative_result("O=C1Nc2cc(F)c([C@@H](O)CN3C[C@H]4C[C@H](Oc5ccccc5)C[C@@]4(O)C3)cc2CO1 (single isomer, unassigned) [Example 36A]")
9.31

1 = O=C1CCc2cc([C@@H](O)CN3C[C@H]4C[C@H](Oc5ccccc5)C[C@@]4(O)C3)cc(F)c2N1 (single isomer, unassigned) [Example 31A]
2 = O=C1CCc2cc([C@H](O)CN3C[C@H]4C[C@H](Oc5ccccc5)C[C@@]4(O)C3)c(F)cc2N1 (single isomer, unassigned) [Example 10B]
3 = O=C1CCc2cc([C@@H](O)CN3C[C@H]4C[C@H](Oc5ccccc5F)C[C@@]4(O)C3)ccc2N1 [Example 5A]
input: # rank by pIC50, ascending (min first) Could you list the labels in the order requested?
output: 3, 1, 2
(3: 7.42, 1: 8.00, 2: 9.25)

Source of measurements: patent US20240208953A1
